Target: T1, naked peptide MTPTDFTSPI (human)
T1 peptide: MTPTDFTSPI
Experiment: ELISA naked peptide; scFv 1 ug/mL; repI
measure_name: OD450
Number first, unit second: that is the form wanted.

# annotated cases, reported OD450 shown
{"binder": "CCR9_HUM2 scFv (humanized anti-CCR9 scFv, SEQ ID NO: 17 with C-terminal 6xHis tag) (scFv) scFv: QVQLVQSGAEVKKPGASVKVSCTASGYSFTDYIIYWVKQAHGQSLEWMGYIDPNNYNTRYSQKFQGKVTITVDKSSTSAYMELNSLTSDDTAVYYCARDVYWGQGTTVTVSSGGGGSGGGGSGGGGSGGGGSDVVMTQTPLSLSVTPGQPASISCRSSQSLVHSNGKTYLQWYLQKPGQSPKLLIYKVSNRFSGVPDRFSGSGSGTDFTLKISRVEAEDVGVYFCAQSTHVWTFGGGTKVEIKRAHHHHHH", "OD450": "0.04 OD"}
{"binder": "Comparative antibody 1 (Comp-1) scFv, SEQ ID NO: 10 from WO2023/037125 A1, His-tagged (scFv) scFv: QVQLKESGPGLVQPSQTLSLTCTVSGFSVASYDMHWVRLPPGKGLEWMGIIWANGNTHYNSGLKSRLSISRDTSKSQVFLKMNSLQTEDTAIYFCTRGGFAYWGQGTLVTVSSGGGGSGGGGSGGGGSGGGGSDVVMTQTPVSLSVSLGGQVSISCRSSQSLVHNNGNTYLSWYLQKPGQSPQLLIYKVSNRFSGVSDRFSGSGSGTDFTLKISRVEPDDLGVYYCGQGTQYPTFGGGTKLELKHHHHHH", "OD450": "0.05 OD"}
{"binder": "Comparative antibody 3 (Comp-3) scFv, SR_92R (Somovilla-Crespo et al. 2018), His-tagged (scFv) scFv: EVKLEESGGGLVQPGGSMKLSCVASGFTFNKFWMNWVRQSPEKGLEWVAEIRLKSNNYATHYAESVKGRFTISRDDSKSSVYLQMNNLRAEDTGIYYCASDGWFAYWGQGTLVTVSAGGGGSGGGGSGGGGSGGGGSDVVMTQTPLSLPVSLGDQASISCRSSQSLVHSNGNTYLNWCLQRPGQSPKSLIYKVSNRFSGVPDRFSGSGSGTDFTLKISRVEAEDLGVYFCSQSTHFPRTFGGGTKLEIKRHHHHHH", "OD450": "0.02 OD"}

For the next question, use this binder.
Tell me measured OD450 for Comparative antibody 2 (Comp-2) scFv, 243LO326 (VH SEQ ID NO: 51 and VL SEQ ID NO: 52 of WO 2022/195028 A2), His-tagged (scFv) scFv: QVQLVQSGAEVKKPGASVKVSCKASGYTFTSYWMHWVRQAPGQGLEWIGVIYPGNSDTRYNQKFKGRVTITRDTSASTAYMELSSLRSEDTAVYYCTRDYYSNYVYYYAMDYWGQGTTVTVSSGGGGSGGGGSGGGGSGGGGSDIVMTQTPLSLPVTPGEPASISCRSSQSLVHPNRNTYLHWYLQKPGQSPQLLIYKVSNRFSGVPDRFSGSGSGTDFTLKISRVEAEDVGVYYCSQSTHVPWTFGQGTKLEIKHHHHHH please.
0.03 OD
